Measured cleaved RNA product abundance, listed per entry.
Tested on: Bacillus subtilis
method description: cleaved RNA product abundance (RNA/gDNA barcode ratio) relative to median wild-type variant (ratio to wild type); higher = more accumulation of the downstream cleavage product
condition info: experiment (reporter, strain, medium): exp 4a: truncated aprE reporter, strain BJT201 with 2% xylose (RNase J1 expressed); cleavage site: cggR-gapA (positions -7 to +36 mutated)
# output: bare number, no unit

Recorded cleaved RNA product abundance, per entry:
| entry sequence | cleaved RNA product abundance |
| --- | --- |
| ACAGACGAAGGAGCCGCAATGAAGTTATTAAGGGATGAATAATCCCTAAATATAAATATCTCTCACTTATTTAAA | 0.792 |
| ACAGACGAAGGAGCCGCAAAGAAGTTATAAAGGGATGAATAATCCCACAATATAAATATCTCTCACTTATTTAAA | 0.183 |
| ACAGACGAAGGAGCCGCAAAGAAATTATTAAGGGATGAATAATCCCTCAATATAGATATCTCTCACTTATTTAAA | 0.474 |

Exam item: Note down cleaved RNA product abundance recorded for ACAGACGAAGGAGCCGCAGAGAAGTTATTAAGGGATGAATAATCCCTCAGTATAAATATCTCTCACTTATTTAAA
Marked response: 0.337
